tested on: NCI-H460/MX20; test: MTT cytotoxicity of ABCG2 substrates with or without a reversal agent, NCI-H460/MX20; type: cell-based, human; details: Homo sapiens; NCI-H460/MX20; no reversal agent; mean ± SD, at least three independent experiments in triplicate; read-out: IC50 of the anticancer drug alone
pIC50: −log10 of the molar value.
Property: pIC50; scope: individual compounds
Endpoint Label: pIC50

- CC[C@@]1(O)C(=O)OCc2c1cc1n(c2=O)Cc2cc3c(CN(C)C)c(O)ccc3nc2-1: 4.41
- O=C1c2c(O)ccc(O)c2C(=O)c2c(NCCNCCO)ccc(NCCNCCO)c21: 4.44
